Target: T1, CD80 (Sino Biological, Cat #10698-H08H) (UniProt P33681 35-242)
T1 sequence (looked up): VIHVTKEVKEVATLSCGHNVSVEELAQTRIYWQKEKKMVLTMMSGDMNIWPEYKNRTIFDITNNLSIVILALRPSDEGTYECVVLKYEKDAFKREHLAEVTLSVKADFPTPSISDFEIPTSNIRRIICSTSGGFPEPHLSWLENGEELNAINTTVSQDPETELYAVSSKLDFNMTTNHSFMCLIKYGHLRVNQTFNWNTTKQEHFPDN
Experiment: ELISA
property name: binding result

74A9 (antibody, human IgG1, V domains shown) VH: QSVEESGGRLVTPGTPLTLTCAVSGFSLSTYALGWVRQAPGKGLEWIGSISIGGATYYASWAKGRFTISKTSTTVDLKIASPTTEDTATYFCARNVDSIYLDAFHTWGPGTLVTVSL VL: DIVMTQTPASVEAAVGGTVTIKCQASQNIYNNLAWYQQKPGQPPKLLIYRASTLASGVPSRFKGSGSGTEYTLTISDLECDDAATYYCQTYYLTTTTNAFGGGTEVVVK : no binding
57F11 (antibody, human IgG1, V domains shown) VH: QEHLEESGGGLVQPEGALTLTCTASGFSFSGDYYMSWVRQAPGKGLEWIASIYTGSLNTYYATWAKGRFTISIASSTTVTLQVTSLTAADTATYFCARRTKNGDYGYFDLWGPGTLVTVSS VL: YDMTQTPASVEVAVGGTVTIKCQASQSINDRLAWYQQKPGQPPKLLIYAASTLASGVPSRFKGSGSGTEFTLTISDLECADAATYYCQQGWTVSSLENAFGGGTEVVAK : no binding
